Origin of the recorded values: ChEMBL document CHEMBL1128230

tested on: CHO; assay: Growth inhibitory activity against CHO cells in culture.; type: functional, cell-based; details: Cricetulus griseus
Consider the following compounds and their measured IC50 readings.
The reply should contain only the number, in µM.

{"STRUCTURE NOTATION": "C=CC=O", "SYSTEM NAME": "CHO", "QUANTITY NAME": "IC50", "UNIT INFO": "µM", "QUANTITATIVE READOUT": 50}

Please examine the following record next.
Would you kindly share the measured IC50 for O=c1[nH]cc(F)c(=O)[nH]1 ?
5
